Where do the numbers come from? From PubChem BioAssay AID330.

system: P388 leukemia ip, CD2F1 mice, survival T/C; test: NCI In Vivo Anticancer Drug Screen. Data for tumor model P388 Leukemia (intraperitoneal) in CD2F1 (CDF1) mice; conditions: endpoint: median survival time; dose: 120.0 mg/kg/injection; schedule: Q01DX005 (ip); vehicle: saline with Tween-80; higher = longer survival
Inconclusive results and toxic doses are left out.
endpoint: T/C

[
  {
    "compound": "Cc1ccc(C(=O)OC2C3(C)CCC(C3)C2(C)C)cc1 (configuration not stated)",
    "targetSystem": "P388 leukemia ip, CD2F1 mice, survival T/C",
    "reportedMeasurement": "100 % of control"
  },
  {
    "compound": "O=C(Nc1ccc(Cl)cc1)Oc1ccc(Cl)cc1C(=O)c1ccccc1",
    "targetSystem": "P388 leukemia ip, CD2F1 mice, survival T/C",
    "reportedMeasurement": "110 % of control"
  },
  {
    "compound": "O=C(OC1CCCc2ccccc21)c1ccc(N=Nc2ccccc2)cc1 (configuration not stated)",
    "targetSystem": "P388 leukemia ip, CD2F1 mice, survival T/C",
    "reportedMeasurement": "88 % of control"
  },
  {
    "compound": "O=C(Nc1ccc(S(=O)(=O)F)cc1)Oc1ccc([N+](=O)[O-])cc1",
    "targetSystem": "P388 leukemia ip, CD2F1 mice, survival T/C",
    "reportedMeasurement": "101 % of control"
  },
  {
    "compound": "Nc1nnc2nc(C(C(=O)c3ccccc3Cl)c3nc4nnc(N)n4[nH]c3=O)c(=O)[nH]n12",
    "targetSystem": "P388 leukemia ip, CD2F1 mice, survival T/C",
    "reportedMeasurement": "98 % of control"
  },
  {
    "compound": "Cc1cccc(CC(O)c2ccc(C=O)cc2)n1 (configuration not stated)",
    "targetSystem": "P388 leukemia ip, CD2F1 mice, survival T/C",
    "reportedMeasurement": "98 % of control"
  },
  {
    "compound": "O=[N+]([O-])c1cc(CN(CCO)CCO)c(O)c2ncccc12",
    "targetSystem": "P388 leukemia ip, CD2F1 mice, survival T/C",
    "reportedMeasurement": "109 % of control"
  },
  {
    "compound": "COc1nc(=O)n(C2CCCO2)cc1Br (configuration not stated)",
    "targetSystem": "P388 leukemia ip, CD2F1 mice, survival T/C",
    "reportedMeasurement": "102 % of control"
  },
  {
    "compound": "O=[N+]([O-])c1ccc(-c2nc3ccc(F)cc3[nH]2)o1",
    "targetSystem": "P388 leukemia ip, CD2F1 mice, survival T/C",
    "reportedMeasurement": "97 % of control"
  },
  {
    "compound": "CCCCS(=O)CCC(N)C(=O)O (configuration not stated)",
    "targetSystem": "P388 leukemia ip, CD2F1 mice, survival T/C",
    "reportedMeasurement": "94 % of control"
  },
  {
    "compound": "NC(=O)c1csc([C@@H](O)Cc2ccccc2)n1",
    "targetSystem": "P388 leukemia ip, CD2F1 mice, survival T/C",
    "reportedMeasurement": "106 % of control"
  },
  {
    "compound": "Nc1nnc(COc2ccc(Cl)cc2)n1N",
    "targetSystem": "P388 leukemia ip, CD2F1 mice, survival T/C",
    "reportedMeasurement": "108 % of control"
  },
  {
    "compound": "Nc1nc(N)nc(-c2cccc(Cl)c2)n1",
    "targetSystem": "P388 leukemia ip, CD2F1 mice, survival T/C",
    "reportedMeasurement": "98 % of control"
  },
  {
    "compound": "CCOC(=O)c1[nH]c(=S)sc1N",
    "targetSystem": "P388 leukemia ip, CD2F1 mice, survival T/C",
    "reportedMeasurement": "92 % of control"
  },
  {
    "compound": "CCC=Nc1c(O)cc(-c2ccccc2)n(C)c1=O",
    "targetSystem": "P388 leukemia ip, CD2F1 mice, survival T/C",
    "reportedMeasurement": "100 % of control"
  },
  {
    "compound": "Cc1ccc(C)c(NC(=O)CCC(=O)C(C#N)c2cccc3ccccc23)c1 (configuration not stated)",
    "targetSystem": "P388 leukemia ip, CD2F1 mice, survival T/C",
    "reportedMeasurement": "104 % of control"
  },
  {
    "compound": "O=C1C2C3CC(c4ccccc43)C2N1S(=O)(=O)Cl (configuration not stated)",
    "targetSystem": "P388 leukemia ip, CD2F1 mice, survival T/C",
    "reportedMeasurement": "106 % of control"
  }
]
